# test-name: Pharmacokinetics of ginsenosides after single oral RGE after amoxicillin with or without repeated LAB treatment
# condition-details: Amoxicillin + LAB; single oral RGE 2 g/kg
property: Half-Life (h)
Provide only the numeric value, understood in h.

>>> readout_value("CC(C)=CCC[C@](C)(O[C@@H]1O[C@H](CO)[C@@H](O)[C@H](O)[C@H]1O)[C@H]1CC[C@]2(C)[C@@H]1[C@H](O)C[C@@H]1[C@@]3(C)CC[C@H](O[C@@H]4O[C@H](CO)[C@@H](O)[C@H](O)[C@H]4O[C@@H]4O[C@H](CO)[C@@H](O)[C@H](O)[C@H]4O)C(C)(C)[C@@H]3CC[C@]12C")
25.5

Which Half-Life value belongs to CC(C)=CCC[C@](C)(O[C@@H]1O[C@H](CO[C@@H]2OC[C@H](O)[C@H](O)[C@H]2O)[C@@H](O)[C@H](O)[C@H]1O)[C@H]1CC[C@]2(C)[C@@H]1[C@H](O)C[C@@H]1[C@@]3(C)CC[C@H](O[C@@H]4O[C@H](CO)[C@@H](O)[C@H](O)[C@H]4O[C@@H]4O[C@H](CO)[C@@H](O)[C@H](O)[C@H]4O)C(C)(C)[C@@H]3CC[C@]12C ?
21.6

====

# test-name: Pharmacokinetics of ginsenosides after single oral RGE after amoxicillin with or without repeated LAB treatment
# condition-details: male, ICR, mouse, plasma, po, 2 g/kg, MRT, Amoxicillin + LAB; single oral RGE 2 g/kg
property: MRT (h)
Provide only the numeric value, understood in h.

Which MRT value belongs to CC(C)=CCC[C@](C)(O[C@@H]1O[C@H](CO[C@@H]2O[C@H](CO)[C@@H](O)[C@H](O)[C@H]2O)[C@@H](O)[C@H](O)[C@H]1O)[C@H]1CC[C@]2(C)[C@@H]1[C@H](O)C[C@@H]1[C@@]3(C)CC[C@H](O[C@@H]4O[C@H](CO)[C@@H](O)[C@H](O)[C@H]4O[C@@H]4O[C@H](CO)[C@@H](O)[C@H](O)[C@H]4O)C(C)(C)[C@@H]3CC[C@]12C [GRb1, 20(S)-ginsenosides Rb1] ?
16.9

====

# test-name: Pharmacokinetics of ginsenosides after single oral RGE with or without amoxicillin treatment
# Type: in vivo, mice
# condition-details: Control; single oral RGE 2 g/kg; plasma; AUC 0 to 48 h; n = 3
property: AUC (ng·h/mL)
Provide only the numeric value, understood in ng·h/mL.

Which AUC value belongs to CC(C)=CCC[C@](C)(O[C@@H]1O[C@H](CO)[C@@H](O)[C@H](O)[C@H]1O)[C@H]1CC[C@]2(C)[C@@H]1[C@H](O)C[C@@H]1[C@@]3(C)CC[C@H](O)C(C)(C)[C@@H]3CC[C@]12C [CK, 20(S)-compound K] ?
69.94

====

# test-name: Pharmacokinetics of ginsenosides after single oral RGE after amoxicillin with or without repeated LAB treatment
# condition-details: Amoxicillin + LAB; single oral RGE 2 g/kg
Please enter criterion met where MRT is greater than or equal to 10 h, and criterion not met where it is lower.

MRT >= 10 h for CC(C)=CCC[C@](C)(O[C@@H]1O[C@H](CO)[C@@H](O)[C@H](O)[C@H]1O)[C@H]1CC[C@]2(C)[C@@H]1[C@H](O)C[C@@H]1[C@@]3(C)CC[C@H](O[C@@H]4O[C@H](CO)[C@@H](O)[C@H](O)[C@H]4O[C@@H]4O[C@H](CO)[C@@H](O)[C@H](O)[C@H]4O)C(C)(C)[C@@H]3CC[C@]12C [GRd] ?
criterion met

MRT >= 10 h for CC(C)=CCC[C@](C)(O[C@@H]1O[C@H](CO[C@@H]2O[C@@H](CO)[C@H](O)[C@H]2O)[C@@H](O)[C@H](O)[C@H]1O)[C@H]1CC[C@]2(C)[C@@H]1[C@H](O)C[C@@H]1[C@@]3(C)CC[C@H](O[C@@H]4O[C@H](CO)[C@@H](O)[C@H](O)[C@H]4O[C@@H]4O[C@H](CO)[C@@H](O)[C@H](O)[C@H]4O)C(C)(C)[C@@H]3CC[C@]12C [GRc] ?
criterion met
